Experimental Target: T1, HLA-A0201 on the surface of T2 cells (human)
T1 construct: MHC class I molecule on TAP-deficient T2 cells
Test Summary: T2 cell peptide loading, 100 µM peptide, anti-HLA-A*02:01 FITC flow cytometry
Property: FI (fluorescence index)

Some solved entries appear below for comparison.
• FMLDGLYSV [mutant polypeptide's variant (depicted in FMLDGLYSV, SEQ ID NO:3)] = 2.34
• FLLDGLYSL [mutant polypeptide's variant (depicted in FLLDGLYSL, SEQ ID NO:6)] = 1.69
• FLLDGLYSV [mutant polypeptide's variant (depicted in FLLDGLYSV, SEQ ID NO:4)] = 2.04

Please give the measured FI (fluorescence index) for this binder: FILDGLYSL [mutant polypeptide's variant (depicted in FILDGLYSL, SEQ ID NO:2)]
1.99
